Values from ChEMBL document CHEMBL2331227

Please provide measured MIC for the entries that follow.
- Tested on: Staphylococcus aureus
- experiment.notes: Antimicrobial activity against methicillin-resistant Staphylococcus aureus isolate 98 by two-fold dilution method
- Format: functional
Report the value in µg/mL with no unit label.

MIC for COC(=O)[C@H](O)[C@H]1C(C)(C)C(=O)[C@@H]2C[C@]3(O)[C@@H]4CC(=O)O[C@@H](c5ccoc5)[C@]4(C)CC[C@@H]3[C@@]1(C)C2=O is 25

MIC for C=C1[C@@H]2CC[C@@]3(C)[C@H](c4ccoc4)OC(=O)C[C@]13O[C@H]1CC(=O)OC(C)(C)[C@H]([C@@H](O)C(=O)OC)[C@]12C (relative stereo) is 50

MIC for CC(=O)O[C@H]1C[C@@H](OC(C)=O)C(C)(C)[C@@H]2CC(=O)[C@]3(C)[C@H](CC[C@@]4(C)[C@@H](c5ccoc5)OC(=O)[C@H]5O[C@]543)[C@@]12C is 25

MIC for COC(=O)C[C@H]1C(C)(C)[C@H](OC(C)=O)[C@]2(O)C=C3[C@H]([C@H](OC(C)=O)C[C@]4(C)[C@H]3CC(=O)O[C@H]4c3ccoc3)[C@@]1(C)C2=O is 25

MIC for COC(=O)C[C@H]1C(C)(C)[C@H](OC(C)=O)[C@@H]2C=C3[C@H]([C@H](OC(C)=O)C[C@]4(C)[C@H]3CC(=O)O[C@H]4c3ccoc3)[C@@]1(C)C2=O is 12.5

MIC for COC(=O)C[C@H]1C(C)(C)[C@H](OC(C)=O)[C@@H]2C=C3[C@@H]4CC(=O)O[C@@H](c5ccoc5)[C@]4(C)CC[C@@H]3[C@@]1(C)C2=O is 12.5

MIC for CC(=O)O[C@H]1C[C@@H](O)C(C)(C)[C@@H]2C[C@@H](OC(C)=O)[C@]3(C)[C@H](CC[C@@]4(C)[C@@H](c5ccoc5)OC(=O)[C@H]5O[C@@]534)[C@@]12C is 12.5

---

- Tested on: Staphylococcus aureus
- experiment.notes: Antimicrobial activity against methicillin-resistant Staphylococcus aureus isolate 98 by two-fold dilution method
- Assay type: functional
Please provide measured MIC for the entries that follow.
Report the value in µg/mL with no unit label.

MIC for CN[C@H](CC(C)C)C(=O)N[C@H]1C(=O)N[C@@H](CC(N)=O)C(=O)N[C@H]2C(=O)N[C@H]3C(=O)N[C@H](C(=O)N[C@H](C(=O)O)c4cc(O)cc(O)c4-c4cc3ccc4O)[C@H](O)c3ccc(c(Cl)c3)Oc3cc2cc(c3O[C@@H]2O[C@H](CO)[C@@H](O)[C@H](O)[C@H]2O[C@H]2C[C@](C)(N)[C@H](O)[C@H](C)O2)Oc2ccc(cc2Cl)[C@H]1O.Cl [VANCOMYCIN HYDROCHLORIDE] is 0.78

MIC for CC(=O)O[C@@H]1C[C@H](O)[C@]2(C)[C@H]3CC[C@@]4(C)[C@@H](c5ccoc5)OC(=O)[C@H]5O[C@]54[C@]3(C)[C@H](OC(C)=O)C[C@H]2C1(C)C is 12.5

MIC for COC(=O)[C@H](O)[C@H]1C(C)(C)[C@H](OC(C)=O)[C@@H]2CC3=C4CC(=O)O[C@@H](c5ccoc5)[C@]4(C)CC[C@@H]3[C@@]1(C)C2=O [SWIETENOLIDE-3-ACETATE] is 25

MIC for COC(=O)[C@@H](OC(C)=O)[C@H]1C(C)(C)C(=O)[C@@H]2C=C3[C@@H]4CC(=O)O[C@@H](c5ccoc5)[C@]4(C)CC[C@@H]3[C@@]1(C)C2=O [khayalenoid E] is 25
